- ASSAY TEXT: protein stability index of a GFP-peptide fusion (GPS, HEK-293T) (PSI 1-6); higher = more stable;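 further: 24-mer peptide tiles fused after GFP, lentivirally expressed, FACS-sorted into six equal bins by GFP/DsRed ratio, decoded by Illumina sequencing, PSI is the read-weighted mean bin number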
- MEASUREMENT CONTEXT: treatment: DMSO; c terminus: a fixed tail appended
QUANTITY MEASURED: protein stability index
// keep it numeric: no unit symbol after the value

Here are 8 sequences together with their reported answers.
* KLSFRARAYGFRGPGPQLRRGWRP [CHGA] | 3.01
* LDPVAETAIRQLTEPSGRVAKKTP [C2CD2L] | 5.66
* PAPSPAKEERKTEVVMNSQQTPVG [PALM] | 5.52
* VAPATMGSARSHASSRASENQSPS [ZBTB22] | 4.96
* DKVRALEEANADLEVKIRDWYQRQ [KRT16] | 4.01
* MALTPVVVTLWYRAPEVLLQSTYA [CDK4] | 3.04
* PLPESLASLHPSVSPGSPPPPLPN [PLAGL1] | 5.01
* RADLVFIIDSSRSVNTHDYAKVKE [MATN2] | 2.51

Qu. I would be grateful if you could share the reported protein stability index for RREVERKQKGSEENLDEAREQKEK [ADD1] .
Ans. 5.5

Qu. Likewise for IRLCDMRASALCDRHTKFFEEPED [PPP2R2B] ?
Ans. 3.59

Qu. Entry to check: HVQKLSQECLKQLAIKKQQHIDNI [TRIM14]
Ans. 3.81

Qu. Lookup LDNTKKKMEIYQKENKDVIQKNKL [MNAT1]
Ans. 4.44

Qu. Lookup KVSGNRCASPVTGPGSKRDAHFCA [ESR2]
Ans. 2.76

Qu. What do you get for YLESETETTEAIDDEGWLHSGDLG [ACSBG2] ?
Ans. 5.25

Qu. Follow-up entry: TGDPLPEISKDNSCKENCTCSSCL [EDARADD]
Ans. 5.47

Qu. For EIDIFNPQTVGVGRARFTTYEVRM [SNX12] then?
Ans. 2.36

Qu. Next entry: CHDKYTKIFNDFKDRMKSDHKRET [ZMYND11]
Ans. 4.08

Qu. Lookup DSLKPEQLDIEEEGRPGAATFHVG [TFE3]
Ans. 5.38

Qu. Consider next the sequence PTVPSAATSQPTPSQHSAHTSSQP [CCDC6] in the same way.
Ans. 5.21

Qu. Similarly, TNTRSDLDVFGRGDNISDVSKFLE [LUC7L3] ?
Ans. 4.67

Qu. Another sequence to look at: RPSEAQSVILRRYFLELTQSFIIP [DENND6A]
Ans. 2.91

Qu. Further, for KKKAIQEEEERDQALQAKASLTIP [YJU2B] ?
Ans. 5.27

Qu. Query AGRQSVSGRKNSTSKDLVTLGASS [C6orf223] next
Ans. 4.4

Qu. Try the sequence LAMWTTALLHQAETLQPSVWFGGR [TMEM175]
Ans. 3
